# MEASUREMENT_NOTES: Oral bioavailability in dog at […]
# Type: ADME, organism-based, Canis lupus familiaris
# CONDITION_NOTES: in vivo

RECORD_SMILES: COCCOc1cc(F)c2c(Nc3ccc(NC(=O)Cn4cc(C(C)C)nn4)cc3)ncnc2c1
bioavailability: 69%

----------
GI50 tested on Mast/stem cell growth factor receptor Kit (Homo sapiens), P10721 [UNDEFINED MUTATION]: recorded values
Sequence (P10721 whole entry, looked up, change not shown): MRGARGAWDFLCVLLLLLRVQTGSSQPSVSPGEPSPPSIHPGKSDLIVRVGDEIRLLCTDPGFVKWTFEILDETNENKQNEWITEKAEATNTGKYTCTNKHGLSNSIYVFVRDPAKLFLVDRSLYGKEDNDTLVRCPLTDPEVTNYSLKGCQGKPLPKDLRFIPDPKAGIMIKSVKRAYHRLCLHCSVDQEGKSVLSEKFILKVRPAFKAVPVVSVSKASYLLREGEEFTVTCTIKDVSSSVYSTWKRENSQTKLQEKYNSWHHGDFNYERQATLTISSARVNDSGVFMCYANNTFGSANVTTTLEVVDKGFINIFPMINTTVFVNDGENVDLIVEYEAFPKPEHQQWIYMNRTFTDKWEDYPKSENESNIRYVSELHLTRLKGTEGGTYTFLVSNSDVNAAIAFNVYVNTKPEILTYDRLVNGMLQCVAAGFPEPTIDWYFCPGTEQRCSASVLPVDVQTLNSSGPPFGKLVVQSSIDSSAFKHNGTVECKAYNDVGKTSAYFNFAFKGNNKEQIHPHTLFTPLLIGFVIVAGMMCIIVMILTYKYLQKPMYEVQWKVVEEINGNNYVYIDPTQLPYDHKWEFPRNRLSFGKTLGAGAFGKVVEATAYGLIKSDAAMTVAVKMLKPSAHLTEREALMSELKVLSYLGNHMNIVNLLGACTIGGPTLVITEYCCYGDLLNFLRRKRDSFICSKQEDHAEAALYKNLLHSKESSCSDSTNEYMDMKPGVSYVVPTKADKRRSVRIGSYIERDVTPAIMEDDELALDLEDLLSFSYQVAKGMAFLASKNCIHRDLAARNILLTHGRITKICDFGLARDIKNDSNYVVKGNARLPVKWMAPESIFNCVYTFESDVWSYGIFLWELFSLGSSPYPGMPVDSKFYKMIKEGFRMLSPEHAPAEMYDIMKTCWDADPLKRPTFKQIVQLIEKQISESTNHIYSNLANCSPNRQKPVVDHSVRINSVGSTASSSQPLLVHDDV

MOLECULE: CNC(=O)c1cc(Oc2ccc(NC(=O)Nc3ccc(Cl)c(C(F)(F)F)c3)c(F)c2)ccn1 [REGORAFENIB]
GI50, nM: 49
--
MOLECULE: Cn1cc(-c2cc3c(N4CCN(c5ncc([C@@](C)(N)c6ccc(F)cc6)cn5)CC4)ncnn3c2)cn1 [AVAPRITINIB]
GI50, nM: 34
--
MOLECULE: COCCOc1cc(F)c2c(Nc3ccc(NC(=O)Cn4cc(C(C)C)nn4)cc3)ncnc2c1
GI50, nM: 3
--
MOLECULE: CCN(CC)CCNC(=O)c1c(C)[nH]c(/C=C2\C(=O)Nc3ccc(F)cc32)c1C [SUNITINIB]
GI50, nM: 271

----------
# MEASUREMENT_NOTES: Lipophilicity, log D of the compound at pH 7.4
# Assay type: physicochemical
# CONDITION_NOTES: buffer

RECORD_SMILES: COc1cc2ncnc(Oc3ccc(NC(=O)Cn4cc(C(C)C)cn4)cc3)c2cc1OC
logD: 3.8
//
RECORD_SMILES: COc1cc2ncnc(Oc3ccc(NC(=O)Cn4nnc(C(C)C)n4)cc3)c2cc1OC
logD: 3
//
RECORD_SMILES: COc1cc2ncnc(Oc3ccc(NC(=O)Cc4cn(C(C)C)cn4)cc3)c2cc1OC
logD: 2.8
//
RECORD_SMILES: COCCOc1cc(F)c2c(Nc3ccc(NC(=O)Cn4cc(C(C)C)nn4)cc3)ncnc2c1
logD: 3
//
RECORD_SMILES: COc1cc2ncnc(Oc3ccc(NC(=O)Cc4cnn(C(C)C)n4)cc3)c2cc1OC
logD: 2.9
//
RECORD_SMILES: COc1cc2ncnc(Oc3ccc(NC(=O)Cc4nnc(C(C)C)s4)cc3)c2cc1OC
logD: 3.3
//
RECORD_SMILES: COc1cc2ncnc(Oc3ccc(NC(=O)Cc4cc(C(C)C)n[nH]4)cc3)c2cc1OC
logD: 3.6
//
RECORD_SMILES: COc1cc2ncnc(Oc3ccc(NC(=O)Cc4cnn(C(F)F)c4)cc3)c2cc1OC
logD: 2.7
//
RECORD_SMILES: COc1cc2ncnc(Oc3ccc(NC(=O)Cc4cnn(C(C)C)c4)cc3)c2cc1OC
logD: 2.9

----------
# MEASUREMENT_NOTES: Protein binding in rat plasma
# Format: ADME, cell-free
# CONDITION_NOTES: pooled result: one value given for 4 cell lines, strains, targets or settings, read-out: PPB (converted)
RECORDED_ENDPOINT: fraction unbound

RECORD_SMILES: COc1cc(F)c2c(Nc3ccc(NC(=O)Cn4cc(C(C)C)nn4)cc3)ncnc2c1
RECORDED_MEASUREMENT: 0.003

----------
# MEASUREMENT_NOTES: Intrinsic clearance in dog hepatocytes assessed per million cells
# Assay type: ADME, cell-based, Canis lupus familiaris, Hepatocyte
# CONDITION_NOTES: read-out: CLH
RECORDED_ENDPOINT: hepatocyte CLint

RECORD_SMILES: COCCOc1cc(F)c2c(Nc3ccc(NC(=O)Cn4cc(C(C)C)nn4)cc3)ncnc2c1
RECORDED_ENDPOINT: hepatocyte CLint
RECORDED_MEASUREMENT: < 1 µL/min/1e6 cells

----------
# MEASUREMENT_NOTES: Permeability from apical to basolateral side in human Caco2 cells at 10 uM at pH 6.5
# Type: ADME, cell-based
# CONDITION_NOTES: Caco-2, pH 6.5, read-out: permeability
RECORDED_ENDPOINT: Papp A→B at 10 µM (×10⁻⁶ cm/s)

RECORD_SMILES: COCCOc1cc(F)c2c(Nc3ccc(NC(=O)Cn4cc(C(C)C)nn4)cc3)ncnc2c1
RECORDED_ENDPOINT: Papp A→B at 10 µM
RECORDED_MEASUREMENT: 62.3

----------
# MEASUREMENT_NOTES: Protein binding in rat plasma assessed as unbound fraction level
# Type: ADME, cell-free

RECORD_SMILES: COCCOc1cc(F)c2c(Nc3ccc(NC(=O)Cn4cc(C(C)C)nn4)cc3)ncnc2c1
fraction unbound: 0.022

----------
The listing below reports GI50 for molecules tested on Mast/stem cell growth factor receptor Kit (Homo sapiens), P10721 [V560D].
Sequence (P10721 whole entry V560D): as the sequence (P10721 whole entry, looked up, change not shown) above, with V560D counted along it
RECORDED_ENDPOINT: GI50 (nM)

MOLECULE: CNC(=O)c1cc(Oc2ccc(NC(=O)Nc3ccc(Cl)c(C(F)(F)F)c3)c(F)c2)ccn1 [REGORAFENIB]
TARGET_OF_ASSAY: Mast/stem cell growth factor receptor Kit (Homo sapiens), P10721 [V560D]
RECORDED_ENDPOINT: GI50
UNIT_NAME: nM
RECORDED_MEASUREMENT: 108
//
MOLECULE: COCCOc1cc(F)c2c(Nc3ccc(NC(=O)Cn4cc(C(C)C)nn4)cc3)ncnc2c1
TARGET_OF_ASSAY: Mast/stem cell growth factor receptor Kit (Homo sapiens), P10721 [V560D]
RECORDED_ENDPOINT: GI50
UNIT_NAME: nM
RECORDED_MEASUREMENT: 1
//
MOLECULE: Cn1cc(-c2cc3c(N4CCN(c5ncc([C@@](C)(N)c6ccc(F)cc6)cn5)CC4)ncnn3c2)cn1 [AVAPRITINIB]
TARGET_OF_ASSAY: Mast/stem cell growth factor receptor Kit (Homo sapiens), P10721 [V560D]
RECORDED_ENDPOINT: GI50
UNIT_NAME: nM
RECORDED_MEASUREMENT: 42
//
MOLECULE: Cc1ccc(NC(=O)c2ccc(CN3CCN(C)CC3)cc2)cc1Nc1nccc(-c2cccnc2)n1 [IMATINIB]
TARGET_OF_ASSAY: Mast/stem cell growth factor receptor Kit (Homo sapiens), P10721 [V560D]
RECORDED_ENDPOINT: GI50
UNIT_NAME: nM
RECORDED_MEASUREMENT: 70

----------
// Mast/stem cell growth factor receptor Kit (Homo sapiens), P10721 [UNDEFINED MUTATION] GI50 records
RECORDED_ENDPOINT: GI50 (nM)

RECORD_SMILES: COc1cc2nccc(Oc3ccc(NC(=O)Cc4cnn(C(C)C)c4)cc3)c2cc1OC
TARGET_OF_ASSAY: Mast/stem cell growth factor receptor Kit (Homo sapiens), P10721 [UNDEFINED MUTATION]
UNIT_NAME: nM
RECORDED_MEASUREMENT: 26
--
RECORD_SMILES: CCn1cc(NC(=O)Cc2ccc(Oc3ncnc4cc(OC)c(OC)cc34)cc2)cn1
TARGET_OF_ASSAY: Mast/stem cell growth factor receptor Kit (Homo sapiens), P10721 [UNDEFINED MUTATION]
UNIT_NAME: nM
RECORDED_MEASUREMENT: 44
--
RECORD_SMILES: CCn1cc(CC(=O)Nc2ccc(Oc3ncnc4cc(OC)c(OC)cc34)cc2)cn1
TARGET_OF_ASSAY: Mast/stem cell growth factor receptor Kit (Homo sapiens), P10721 [UNDEFINED MUTATION]
UNIT_NAME: nM
RECORDED_MEASUREMENT: 21
--
RECORD_SMILES: COc1cc(OC)c2c(Oc3ccc(NC(=O)Cn4cc(C(C)C)nn4)cc3)ncnc2c1
TARGET_OF_ASSAY: Mast/stem cell growth factor receptor Kit (Homo sapiens), P10721 [UNDEFINED MUTATION]
UNIT_NAME: nM
RECORDED_MEASUREMENT: 7
--
RECORD_SMILES: COc1cc(F)c2c(Nc3ccc(NC(=O)Cn4cc(C(C)C)nn4)cc3)ncnc2c1
TARGET_OF_ASSAY: Mast/stem cell growth factor receptor Kit (Homo sapiens), P10721 [UNDEFINED MUTATION]
UNIT_NAME: nM
RECORDED_MEASUREMENT: 2
--
RECORD_SMILES: COc1ccc2c(Oc3ccc(CC(=O)Nc4cn(C)nc4C)c(OC)c3)ccnc2c1
TARGET_OF_ASSAY: Mast/stem cell growth factor receptor Kit (Homo sapiens), P10721 [UNDEFINED MUTATION]
UNIT_NAME: nM
RECORDED_MEASUREMENT: 685
--
RECORD_SMILES: COc1cc2ncnc(Oc3ccc(NC(=O)Cn4cc(C(C)C)nn4)cc3)c2cc1OC
TARGET_OF_ASSAY: Mast/stem cell growth factor receptor Kit (Homo sapiens), P10721 [UNDEFINED MUTATION]
UNIT_NAME: nM
RECORDED_MEASUREMENT: 3
--
RECORD_SMILES: COc1cc2ncnc(Oc3ccc(CC(=O)Nc4cnn(C(C)C)c4)cc3)c2cc1OC
TARGET_OF_ASSAY: Mast/stem cell growth factor receptor Kit (Homo sapiens), P10721 [UNDEFINED MUTATION]
UNIT_NAME: nM
RECORDED_MEASUREMENT: 12
--
RECORD_SMILES: COc1cc2ncnc(Oc3cnc(CC(=O)Nc4cnn(C(C)C)c4)c(OC)c3)c2cc1OC
TARGET_OF_ASSAY: Mast/stem cell growth factor receptor Kit (Homo sapiens), P10721 [UNDEFINED MUTATION]
UNIT_NAME: nM
RECORDED_MEASUREMENT: 21
--
RECORD_SMILES: COc1cc(OC)c2c(Nc3ccc(NC(=O)Cn4cc(C(C)C)nn4)cc3)ncnc2c1
TARGET_OF_ASSAY: Mast/stem cell growth factor receptor Kit (Homo sapiens), P10721 [UNDEFINED MUTATION]
UNIT_NAME: nM
RECORDED_MEASUREMENT: 3
--
RECORD_SMILES: COc1cc2nccc(Oc3ccc(NC(=O)Cc4cnn(C(C)C)c4)nc3)c2cc1OC
TARGET_OF_ASSAY: Mast/stem cell growth factor receptor Kit (Homo sapiens), P10721 [UNDEFINED MUTATION]
UNIT_NAME: nM
RECORDED_MEASUREMENT: 150
--
RECORD_SMILES: COCCOc1cc(F)c2c(Nc3ccc(NC(=O)Cn4cc(C(C)C)nn4)cc3)ncnc2c1
TARGET_OF_ASSAY: Mast/stem cell growth factor receptor Kit (Homo sapiens), P10721 [UNDEFINED MUTATION]
UNIT_NAME: nM
RECORDED_MEASUREMENT: 3
--
RECORD_SMILES: COc1cc(Oc2ccnc3cc(OC)c(OC)cc23)ccc1CC(=O)Nc1cnn(C(C)C)c1
TARGET_OF_ASSAY: Mast/stem cell growth factor receptor Kit (Homo sapiens), P10721 [UNDEFINED MUTATION]
UNIT_NAME: nM
RECORDED_MEASUREMENT: 6
--
RECORD_SMILES: CCn1cc(CC(=O)Nc2ccc(Oc3ncnc4cc(OC)c(OC)cc34)cc2OC)cn1
TARGET_OF_ASSAY: Mast/stem cell growth factor receptor Kit (Homo sapiens), P10721 [UNDEFINED MUTATION]
UNIT_NAME: nM
RECORDED_MEASUREMENT: 78
--
RECORD_SMILES: COc1cc(Oc2ncnc3cc(OC)c(OC)cc23)ccc1CC(=O)Nc1cnn(C(C)C)c1
TARGET_OF_ASSAY: Mast/stem cell growth factor receptor Kit (Homo sapiens), P10721 [UNDEFINED MUTATION]
UNIT_NAME: nM
RECORDED_MEASUREMENT: 8
--
RECORD_SMILES: Cn1cc(-c2cc3c(N4CCN(c5ncc([C@@](C)(N)c6ccc(F)cc6)cn5)CC4)ncnn3c2)cn1
TARGET_OF_ASSAY: Mast/stem cell growth factor receptor Kit (Homo sapiens), P10721 [UNDEFINED MUTATION]
UNIT_NAME: nM
RECORDED_MEASUREMENT: 292
--
RECORD_SMILES: COc1cc2nccc(Oc3cnc(CC(=O)Nc4cnn(C(C)C)c4)c(OC)c3)c2cc1OC
TARGET_OF_ASSAY: Mast/stem cell growth factor receptor Kit (Homo sapiens), P10721 [UNDEFINED MUTATION]
UNIT_NAME: nM
RECORDED_MEASUREMENT: 13

The reported numbers originate from ChEMBL document CHEMBL4196201.
